# assay_method_text: pKa determination
# Format: physicochemical
# measurement_conditions: read-out: pKa value (guanidino/amidino moiety)
Structures can show the parent of a compound that is named as a salt.

{"columns": ["compound", "pKa"],
 "data": [
  ["N=C(N)NCCS(=O)(=O)O [GES, guanidinoethane sulfate]", 12.5]
]}
